All values here come from patent US12202826B2.

Collected IC50 values appear next to each entry.
Tested on: L-Wnt cells (murine Wnt-3a) / Leading Light Wnt Reporter Cells (luciferase under control of Wnt pathway response elements)
Assay: Dual-Cell β-Catenin Reporter Assay
Type: cell-based, Mouse
Settings: category of IC50; luciferase signal reduced to 50% of DMSO control
Measured endpoint: IC50

Cc1nn(CC(=O)Nc2ccc(-c3cnccn3)cn2)cc1C1=CCOCC1 : 5 to 100 nM
Cc1nn(C(C)C(=O)Nc2ccc(-c3cnccn3)cn2)c(C)c1C1=CCOCC1 (centres unmarked) : < 5 nM
O=C(Cc1cc(C2=CCOCC2)cs1)Nc1ccc(-c2cnccn2)cn1 : 5 to 100 nM
O=C(Cn1cc(-c2cnsc2)cn1)Nc1ccc(-c2cnccn2)cn1 : 5 to 100 nM
Cc1cc(-c2ncn(CC(=O)Nc3ccc(-c4cnccn4)cn3)c2C)ccn1 : < 5 nM
